Experiment: Pharmacokinetics and plasma concentration of Example 101 in Lewis rats after oral administration (CIA study)
Assay type: in vivo, Lewis rat
Conditions: Lewis, rat, plasma, oral, 10 mg/kg, plasma, oral, day 20, 10 mg/kg, 24 h
parameter: concentration at 24 h (µg/mL)
All answers are understood in µg/mL, so give the number only.

Lookup: Could you tell me which concentration at 24 h is on file for CNC(=O)c1[nH]c(C(=O)NC2CCC2)cc1O[C@@H](C)c1ccccc1 (stereo in doubt) ?
Found: 0.025

----------
Experiment: Beagle dog PK study 1 of Example 101 (propylene glycol-based formulation, IV and PO), with clinical observations
Type: in vivo
Conditions: beagle, dog, plasma, iv, 1 mg/kg, dog PK study 1, intravenous, Test Animal 2
parameter: half-life
Lab note: write values as number then unit, every time.

Lookup: Could you tell me which half-life is on file for CNC(=O)c1[nH]c(C(=O)NC2CCC2)cc1O[C@@H](C)c1ccccc1 (stereo in doubt) [Example 101] ?
Found: 58.6 min
